target: hOx1R (Homo sapiens (Human), UniProt O43613); assay: Calcium accumulation in cells (FLIPR), hOx1R; conditions: inhibition of orexin A induced calcium accumulation, Cheng and Prusoff correction
Sequence (O43613 whole entry): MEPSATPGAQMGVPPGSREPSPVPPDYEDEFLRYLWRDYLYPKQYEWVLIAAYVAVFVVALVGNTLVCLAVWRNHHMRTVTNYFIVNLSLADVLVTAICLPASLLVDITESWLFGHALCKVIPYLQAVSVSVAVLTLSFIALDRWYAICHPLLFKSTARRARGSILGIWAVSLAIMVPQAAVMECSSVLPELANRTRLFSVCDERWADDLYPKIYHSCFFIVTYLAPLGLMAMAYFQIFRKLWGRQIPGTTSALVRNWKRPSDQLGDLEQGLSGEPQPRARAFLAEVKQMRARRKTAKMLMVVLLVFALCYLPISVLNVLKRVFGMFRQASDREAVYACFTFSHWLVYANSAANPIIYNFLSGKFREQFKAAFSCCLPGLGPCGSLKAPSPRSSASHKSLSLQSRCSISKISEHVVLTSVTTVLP
metric.name: Ki (nM)

Consider the worked cases shown below.
Q: Give the measured Ki of O=C1N(Cc2cc(F)cc3c2OCOC3)CCCC12CCN(c1cnc3ccccc3n1)CC2 .
Ans: 700

Q: Give the measured Ki of Cc1nc(-c2cccc(CN3CCCC4(CCN(c5cnc6ccccc6n5)CC4)C3=O)c2)no1 .
Ans: 425

Q: Give the measured Ki of CN1CCOc2c(CN3CCCC4(CCN(c5cnc6ccccc6n5)CC4)C3=O)cccc21 .
Ans: 3250

Q: Give the measured Ki of O=C1N(Cc2cccc3[nH]ccc23)CCCC12CCN(c1cnc3ccccc3n1)CC2 .
Ans: 474

Q: Give the measured Ki of O=C1N(Cc2cnc3ccccn23)CCCC12CCN(c1cnc3ccccc3n1)CC2 .
Ans: 3420

I = Cc1cccc(CN2CCCC3(CCN(c4cnc5ccccc5n4)CC3)C2=O)c1
II = O=C1N(Cc2cccc(-c3cccnc3)c2)CCCC12CCN(c1cnc3ccccc3n1)CC2
III = O=C1N(Cc2cccc(-c3ccccc3)c2)CCCC12CCN(c1cnc3ccccc3n1)CC2
Q: Sort by Ki, descending. Write the labels out in the order the request specifies.
Ans: I, III, II
(I: 1380 nM, III: 518 nM, II: 83 nM)

====

target: hOx1R (Homo sapiens (Human)); assay: Calcium accumulation in cells (FLIPR), hOx1R; conditions: inhibition of orexin A induced calcium accumulation, Cheng and Prusoff correction
pKi: −log10 of the molar value.
metric.name: pKi

Q: Give the measured pKi of Cc1oc(-c2cscn2)nc1CN1CCCC2(CCN(c3cnc4ccccc4n3)CC2)C1=O [Example 114] .
Ans: 5.42

Q: Give the measured pKi of O=C1CCCC2(CCN(c3cnc4ccccc4n3)CC2)N1Cc1c[nH]c2ncccc12 [Example 141] .
Ans: 5.70

Q: Give the measured pKi of O=C1N(Cc2c[nH]c3ccccc23)CCCC12CCN(c1cnc3ccccc3n1)CC2 [Example 1] .
Ans: 6.50

Q: Give the measured pKi of O=C1N(Cc2ccnc(-n3cccn3)c2)CCCC12CCN(c1cnc3ccccc3n1)CC2 [Example 63] .
Ans: 6.05

Q: Give the measured pKi of O=C1N(Cc2c[nH]c3ccccc23)CCCC12CCN(c1nccc3occc13)CC2 [Example 156] .
Ans: 6.21

I = Cc1cc2c(CN3CCCC4(CCN(c5cnc6ccccc6n5)CC4)C3=O)cccc2[nH]1 [Example 13]
II = O=C1N(Cc2cccc(-n3nccn3)c2)CCCC12CCN(c1cnc3ccccc3n1)CC2 [Example 47]
Q: Parameter metric = pKi. Return the lower-valued option from I and II . I would appreciate it if you answered with the label of your choice.
Ans: I

P = O=C1N(Cc2cccc(-n3cccn3)n2)CCCC12CCN(c1cnc3ccccc3n1)CC2 [Example 83]
Q = O=C1N(Cc2cccc(-n3ccnn3)c2)CCCC12CCN(c1cnc3ccccc3n1)CC2 [Example 46]
R = CC(c1c[nH]c2ccccc12)N1CCCC2(CCN(c3cnc4ccccc4n3)CC2)C1=O (stereo not drawn) [Example 74]
Q: Sort by pKi, descending. Write the labels out in the order the request specifies.
Ans: R, Q, P

1 = O=C1N(Cc2cncn2Cc2ccccc2)CCCC12CCN(c1cnc3ccccc3n1)CC2 [Example 118]
2 = Cn1cc(CN2C(=O)CCCC23CCN(c2cnc4ccccc4n2)CC3)c2cccnc21 [Example 143]
Q: Between 1 and 2 , which one shows the larger pKi value? I would appreciate it if you answered with the label of your choice.
Ans: 2
(2: 6.13, 1: 5.74)

====

molecular target: hOx1R (Homo sapiens (Human)); assay: Radioligand binding assay, [3H]-SB649868, hOx1R; details: radioligand [3H]-SB649868, competition
metric.name: Kd (nM)
Write the answer as a number in nM, unit excluded.

Q: Give the measured Kd of O=C1N(Cc2cccc(-c3ncccn3)c2)CCCC12CCN(c1cnc3ccccc3n1)CC2 .
Ans: 2050

Alright, here's another compound for you.
Q: Give the measured Kd of Cc1noc(-c2ccccc2CN2CCCC3(CCN(c4cnc5ccccc5n4)CC3)C2=O)n1 .
Ans: 2770

====

molecular target: hOx1R (Homo sapiens (Human), UniProt O43613); assay: Radioligand binding assay, [3H]-SB649868, hOx1R; conditions: radioligand [3H]-SB649868, competition
metric.name: Kd (nM)

Consider the worked cases shown below.
Q: Query Kd on hOx1R (Homo sapiens (Human), UniProt O43613) for O=C1N(Cc2c[nH]c3ccccc23)CCCC12CCN(c1cnc3ccccc3c1)CC2
Ans: 1840

Q: Query Kd on hOx1R (Homo sapiens (Human), UniProt O43613) for O=C1N(Cc2cccc(-n3nccn3)c2)CCCC12CCN(c1cnc3ccccc3n1)CC2
Ans: 318

Q: Query Kd on hOx1R (Homo sapiens (Human), UniProt O43613) for O=C1N(Cc2cccc(-n3cccn3)n2)CCCC12CCN(c1cnc3ccccc3n1)CC2
Ans: 2760

Q: Query Kd on hOx1R (Homo sapiens (Human), UniProt O43613) for O=C1N(Cc2c[nH]c3ccccc23)CCCC12CCN(c1ncc3ccccc3n1)CC2
Ans: 926

a = Cn1cc(CN2CCCC3(CCN(c4cnc5ccccc5n4)CC3)C2=O)c2ccccc21
b = O=C1N(Cc2cccc3nonc23)CCCC12CCN(c1cnc3ccccc3n1)CC2
c = O=C1N(Cc2ncoc2-c2ccccc2)CCCC12CCN(c1cnc3ccccc3n1)CC2
d = O=C1N(Cc2cccc3c2OCCO3)CCCC12CCN(c1nccc3occc13)CC2
Q: Arrange the 4 compounds by rising Kd, starting with the smallest. Write the labels out in the order the request specifies.
Ans: c, a, b, d
(c: 429 nM, a: 1280 nM, b: 2330 nM, d: 5090 nM)

====

biological target: hOx2R (Homo sapiens (Human), UniProt O43614); experiment: Calcium accumulation in cells (FLIPR), hOx2R; conditions: inhibition of orexin A induced calcium accumulation, Cheng and Prusoff correction
Sequence (O43614 whole entry): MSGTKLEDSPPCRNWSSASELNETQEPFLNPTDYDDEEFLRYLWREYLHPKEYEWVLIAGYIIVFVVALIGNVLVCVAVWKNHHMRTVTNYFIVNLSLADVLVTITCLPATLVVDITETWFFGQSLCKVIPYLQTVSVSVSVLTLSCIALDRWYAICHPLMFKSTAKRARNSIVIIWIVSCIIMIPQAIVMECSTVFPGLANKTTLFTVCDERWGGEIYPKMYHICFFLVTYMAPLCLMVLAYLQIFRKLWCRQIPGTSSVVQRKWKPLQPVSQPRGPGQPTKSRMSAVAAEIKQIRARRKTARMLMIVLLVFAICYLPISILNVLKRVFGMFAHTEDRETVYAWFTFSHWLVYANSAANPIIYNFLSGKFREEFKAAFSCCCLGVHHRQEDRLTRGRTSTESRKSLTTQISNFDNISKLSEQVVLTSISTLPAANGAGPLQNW
metric.name: Ki (nM)

Q: Give the measured Ki of Cc1noc(-c2cccc(CN3CCCC4(CCN(c5cnc6ccccc6n5)CC4)C3=O)c2)n1 .
Ans: 106

Q: Give the measured Ki of O=C1N(Cc2ccnc(N3CCOCC3)c2)CCCC12CCN(c1cnc3ccccc3n1)CC2 .
Ans: 483

Q: Give the measured Ki of Cc1cccc(-c2sc(C)nc2CN2CCCC3(CCN(c4cnc5ccccc5n4)CC3)C2=O)c1 .
Ans: 163

Q: Give the measured Ki of O=C1CCCC2(CCN(c3cnc4ccccc4n3)CC2)N1Cc1ccccc1 .
Ans: 161

Q: Give the measured Ki of O=C1CCCC2(CCN(c3nc4ccccc4[nH]3)CC2)N1Cc1cccc2[nH]ccc12 .
Ans: 1970

Q: Give the measured Ki of O=C1N(Cc2ccccc2)CCCC12CCN(c1cnc3ccccc3n1)CC2 .
Ans: 371

P = O=C1N(Cc2ccc(-n3cncn3)cc2)CCCC12CCN(c1cnc3ccccc3n1)CC2
Q = O=C1N(Cc2ccnc(-n3cccn3)c2)CCCC12CCN(c1cnc3ccccc3n1)CC2
R = Cc1cc(CN2CCCC3(CCN(c4cnc5ccccc5n4)CC3)C2=O)ccn1
Q: Arrange the 3 compounds by rising Ki, starting with the smallest. Write the labels out in the order the request specifies.
Ans: Q, R, P
(Q: 83 nM, R: 830 nM, P: 1580 nM)

1 = Cn1nc(CN2CCCC3(CCN(c4cnc5ccccc5n4)CC3)C2=O)c2ccccc21
2 = O=C1N(Cc2cccc(-n3cccn3)c2)CCCC12CCN(c1cnc3ccccc3n1)CC2
3 = O=C1N(Cc2ccnc(Br)c2)CCCC12CCN(c1cnc3ccccc3n1)CC2
4 = O=C1CCCC2(CCN(c3cnc4ccccc4n3)CC2)N1Cc1cccc2[nH]ccc12
5 = COc1cccc(CN2CCCC3(CCN(c4cnc5ccccc5n4)CC3)C2=O)c1OC
Q: Sort by Ki, descending. Write the labels out in the order the request specifies.
Ans: 5, 3, 1, 2, 4
(5: 782 nM, 3: 452 nM, 1: 212 nM, 2: 49 nM, 4: 1 nM)

P = Cn1ccc2c(CN3CCCC4(CCN(c5cnc6ccccc6n5)CC4)C3=O)cccc21
Q = Cc1nc(CN2CCCC3(CCN(c4cnc5ccccc5n4)CC3)C2=O)c(-c2cccc(F)c2)s1
R = O=C1N(Cc2ccccc2)CCCC12CCN(c1nc3ccccc3[nH]1)CC2
S = Cc1cc(CN2CCCC3(CCN(c4cnc5ccccc5n4)CC3)C2=O)c2ccccc2n1
T = O=C1CCCC2(CCN(c3cnc4ccccc4n3)CC2)N1Cc1c[nH]c2ncccc12
Q: Arrange the 5 compounds by rising Ki, starting with the smallest. Write the labels out in the order the request specifies.
Ans: Q, P, S, T, R

====

target: hOx2R (Homo sapiens (Human), UniProt O43614); experiment: Calcium accumulation in cells (FLIPR), hOx2R; conditions: inhibition of orexin A induced calcium accumulation, Cheng and Prusoff correction
pKi: −log10 of the molar value.
metric.name: pKi

Q: Give the measured pKi of O=C1N(Cc2cc(F)cc3c2OCOC3)CCCC12CCN(c1cnc3ccccc3n1)CC2 [Example 120] .
Ans: 6.90

Q: Give the measured pKi of Cc1ccc2oc(N3CCC4(CCCC(=O)N4Cc4cccc5[nH]ccc45)CC3)nc2c1 [Example 140] .
Ans: 7.09

A = O=C1N(Cc2c[nH]c3ccccc23)CCCC12CCN(c1ccc3ccccc3n1)CC2 [Example 160]
B = O=C1N(Cc2cccc3cnccc23)CCCC12CCN(c1cnc3ccccc3n1)CC2 [Example 55]
Q: Between A and B , which one shows the larger pKi value? I would appreciate it if you answered with the label of your choice.
Ans: A
(A: 7.17, B: 6.82)

The reported measurements were obtained from patent US8530648B2.
